Assay: Plasma pharmacokinetics of bortezomib and docetaxel given in combination
Type: in vivo, patients
Details: human, plasma, intravenous, following the first dose, patients with measurable plasma concentrations at 24 h post-dose; read-out: Terminal half-lives, mean values across dose levels

| Structure Smiles String | half-life |
| --- | --- |
| CC(C)C[C@H](NC(=O)[C@H](Cc1ccccc1)NC(=O)c1cnccn1)B(O)O | 900 to 1080 min |

====

Assay: Plasma pharmacokinetics of bortezomib and docetaxel given in combination
Format: in vivo, patients
Settings: human, plasma, intravenous, 1 mg, bortezomib 1.0 mg m^−2 (n=5), day 1, with docetaxel; read-out: AUC0–∞∞, mean (%CV)
Value Kind: AUC(0-inf) (ng·h/mL)

| Structure Smiles String | Value Kind | Units Text | Experimental Result |
| --- | --- | --- | --- |
| CC(C)C[C@H](NC(=O)[C@H](Cc1ccccc1)NC(=O)c1cnccn1)B(O)O | AUC(0-inf) | ng·h/mL | 54.6 |
